Species on record: Sus scrofa
Experiment: Inhibition of porcine kidney alpha/alpha-trehalase assessed as reduction of p-nitrophenol release using p-nitrophenyl glycoside as substrate at 1000 uM by spectrophotometric analysis relative to control

# smilesStr, inhibition (%)
records = [
    ("Cl.OC[C@H]1N[C@H]([C@H](O)CCCCCCc2ccc(F)c(F)c2)[C@@H](O)[C@@H]1O", 1.4),
    ("OC[C@H]1N[C@H]([C@@H](O)CCCCCCc2ccccc2)[C@@H](O)[C@@H]1O", 4.5),
    ("OC[C@H]1N[C@H]([C@H](O)CCCCCCc2ccc(Cl)cc2)[C@@H](O)[C@@H]1O", 6),
    ("Cc1ccc(CCCCCC[C@@H](O)[C@H]2N[C@H](CO)[C@@H](O)[C@@H]2O)cc1", 0),
    ("Cl.OC[C@H]1N[C@H]([C@@H](O)CCCCCCc2ccc(Cl)cc2)[C@@H](O)[C@@H]1O", 5.5),
    ("CC(C)(C)c1ccc(CCCCCCC[C@H]2N[C@H](CO)[C@@H](O)[C@@H]2O)cc1.Cl", 9.8),
    ("O=C1CCCC=C1CCCCCCC[C@H]1N[C@H](CO)[C@@H](O)[C@@H]1O", 0.8),
    ("OC[C@@H]1N[C@@H]([C@H](O)CCCCCCc2ccc(F)cc2)[C@H](O)[C@H]1O", 0),
    ("Cc1ccc(CCCCCC[C@H](O)[C@@H]2N[C@@H](CO)[C@H](O)[C@H]2O)cc1", 0),
]

====

// reported inhibition per item
Tested on: Aspergillus niger
Assay: Inhibition of Aspergillus niger amyloglucosidase assessed as reduction of p-nitrophenol release using p-nitrophenyl-glycoside as substrate at 1000 uM by spectrophotometric analysis relative to control

# smilesStr, measureUnit, inhibition
rows = [
    ("OC[C@H]1N[C@H]([C@@H](O)CCCCCCc2ccc(F)cc2)[C@@H](O)[C@@H]1O", "%", 46.4),
    ("OC[C@H]1N[C@H]([C@@H](O)CCCCCCc2ccccc2)[C@@H](O)[C@@H]1O", "%", 39.7),
    ("CC(C)(C)c1ccc(CCCCCC[C@@H](O)[C@@H]2N[C@@H](CO)[C@H](O)[C@H]2O)cc1", "%", 8.7),
    ("Cl.OC[C@@H]1N[C@@H](CCCCCCCc2ccccc2)[C@H](O)[C@H]1O", "%", 7.2),
    ("OC[C@@H]1N[C@@H]([C@@H](O)CCCCCCc2ccc(Cl)cc2)[C@H](O)[C@H]1O", "%", 0),
    ("OC[C@H]1N[C@H](CCCCCCCc2ccccc2)[C@@H](O)[C@H]1O", "%", 6),
    ("OC[C@@H]1N[C@@H]([C@H](O)CCCCCCc2ccc(F)cc2)[C@H](O)[C@H]1O", "%", 0),
    ("OC[C@@H]1N[C@@H]([C@H](O)CCCCCCc2ccc(Cl)cc2)[C@H](O)[C@H]1O", "%", 8.7),
    ("CC(C)(C)c1ccc(CCCCCC[C@H](O)[C@@H]2N[C@@H](CO)[C@H](O)[C@H]2O)cc1", "%", 7.1),
    ("OC[C@@H]1N[C@@H]([C@@H](O)CCCCCCc2ccc(F)cc2)[C@H](O)[C@H]1O", "%", 11.8),
    ("Cc1ccc(CCCCCC[C@H](O)[C@@H]2N[C@@H](CO)[C@H](O)[C@H]2O)cc1", "%", 0),
    ("Cl.OC[C@@H]1N[C@@H]([C@@H](O)CCCCCCc2ccc(F)c(F)c2)[C@H](O)[C@H]1O", "%", 0),
    ("Cl.OC[C@H]1N[C@H]([C@@H](O)CCCCCCc2ccc(Cl)cc2)[C@@H](O)[C@@H]1O", "%", 41.7),
    ("Cc1ccc(CCCCCC[C@@H](O)[C@@H]2N[C@@H](CO)[C@H](O)[C@H]2O)cc1", "%", 11.3),
]

====

Assay: Inhibition of Penicillium decumbens alpha-L-rhamnosidase assessed as reduction of p-nitrophenol release using p-nitrophenyl-glycoside as substrate by spectrophotometric analysis
// reported IC50 per item
assayEndpoint: IC50

# smilesStr, measValue
measured = [
    ("OC[C@H]1N[C@H](CCCCCCCc2ccccc2)[C@@H](O)[C@H]1O", "313 µM"),
    ("Cl.OC[C@@H]1N[C@@H](CCCCCCCc2ccccc2)[C@H](O)[C@H]1O", "409 µM"),
]

====

// reported log10 IC50 per item
Test: Inhibition of rice alpha-glucosidase assessed as reduction of p-nitrophenol release using p-nitrophenyl glycoside as substrate by spectrophotometric analysis
Design: species or system Oryza sativa
assayEndpoint: log10 IC50 (log10 of the value in µM)

# smilesStr, log10 IC50
records = [
    ("Cl.OC[C@@H]1N[C@@H](CCCCCCCc2ccccc2)[C@H](O)[C@H]1O", 1.04),
    ("OC[C@H]1N[C@H](CCCCCCCc2ccccc2)[C@@H](O)[C@@H]1O", 0.80),
    ("OC[C@@H]1N[C@@H]([C@@H](O)CCCCCCc2ccc(F)cc2)[C@H](O)[C@H]1O", 0.48),
    ("OC[C@@H]1N[C@@H]([C@H](O)CCCCCCc2ccc(F)cc2)[C@H](O)[C@H]1O", 1.96),
    ("OC[C@H]1N[C@H](CCCCCCCc2ccccc2)[C@@H](O)[C@H]1O", 1.93),
    ("Cl.OC[C@@H]1N[C@@H]([C@@H](O)CCCCCCc2ccc(F)c(F)c2)[C@H](O)[C@H]1O", 0.58),
    ("CC(C)(C)c1ccc(CCCCCCC[C@H]2N[C@H](CO)[C@@H](O)[C@@H]2O)cc1.Cl", 2.58),
    ("CC(C)(C)c1ccc(CCCCCC[C@@H](O)[C@@H]2N[C@@H](CO)[C@H](O)[C@H]2O)cc1", 1.32),
    ("O=C1CCCC=C1CCCCCCC[C@H]1N[C@H](CO)[C@@H](O)[C@@H]1O", 2.08),
    ("CC(C)(C)c1ccc(CCCCCC[C@H](O)[C@@H]2N[C@@H](CO)[C@H](O)[C@H]2O)cc1", -0.07),
    ("Cc1ccc(CCCCCC[C@@H](O)[C@@H]2N[C@@H](CO)[C@H](O)[C@H]2O)cc1", 1.80),
    ("Cl.OC[C@H]1N[C@H](CCCCCCCc2ccc(Cl)cc2)[C@@H](O)[C@@H]1O", 1.18),
    ("OC[C@@H]1N[C@@H]([C@@H](O)CCCCCCc2ccc(Cl)cc2)[C@H](O)[C@H]1O", 0.63),
    ("Cc1ccc(CCCCCC[C@H](O)[C@@H]2N[C@@H](CO)[C@H](O)[C@H]2O)cc1", 0.18),
]

====

// reported inhibition per item
System: Penicillium decumbens
Test: Inhibition of Penicillium decumbens alpha-L-rhamnosidase assessed as reduction of p-nitrophenol release using p-nitrophenyl-glycoside as substrate at 1000 uM by spectrophotometric analysis relative to control

# smilesStr, measureUnit, inhibition
records = [
    ("Cc1ccc(CCCCCC[C@@H](O)[C@@H]2N[C@@H](CO)[C@H](O)[C@H]2O)cc1", "%", 2.1),
    ("OC[C@@H]1N[C@@H]([C@H](O)CCCCCCc2ccc(F)cc2)[C@H](O)[C@H]1O", "%", 2.5),
    ("OC[C@H]1N[C@H]([C@@H](O)CCCCCCc2ccc(F)c(F)c2)[C@@H](O)[C@@H]1O", "%", 2.2),
    ("OC[C@H]1N[C@H]([C@@H](O)CCCCCCc2ccc(F)cc2)[C@@H](O)[C@@H]1O", "%", 4),
    ("OC[C@@H]1N[C@@H]([C@H](O)CCCCCCc2ccc(Cl)cc2)[C@H](O)[C@H]1O", "%", 0),
    ("Cl.OC[C@H]1N[C@H]([C@H](O)CCCCCCc2ccc(F)c(F)c2)[C@@H](O)[C@@H]1O", "%", 27),
    ("OC[C@H]1N[C@H]([C@@H](O)CCCCCCc2ccccc2)[C@@H](O)[C@@H]1O", "%", 3.5),
    ("Cc1ccc(CCCCCCC[C@H]2N[C@H](CO)[C@@H](O)[C@@H]2O)cc1.Cl", "%", 14.5),
    ("OC[C@H]1N[C@H](CCCCCCCc2ccc(F)c(F)c2F)[C@@H](O)[C@@H]1O", "%", 6.7),
    ("CC(C)(C)c1ccc(CCCCCC[C@H](O)[C@H]2N[C@H](CO)[C@@H](O)[C@@H]2O)cc1", "%", 6.2),
    ("OC[C@@H]1N[C@@H]([C@@H](O)CCCCCCc2ccc(F)cc2)[C@H](O)[C@H]1O", "%", 1.7),
    ("Cc1ccc(CCCCCC[C@@H](O)[C@H]2N[C@H](CO)[C@@H](O)[C@@H]2O)cc1", "%", 7),
    ("Cl.OC[C@H]1N[C@H]([C@H](O)CCCCCCc2ccc(F)cc2)[C@@H](O)[C@@H]1O", "%", 4.1),
    ("OC[C@H]1N[C@H]([C@H](O)CCCCCCc2ccc(Cl)cc2)[C@@H](O)[C@@H]1O", "%", 1.3),
    ("Cc1ccc(CCCCCC[C@H](O)[C@@H]2N[C@@H](CO)[C@H](O)[C@H]2O)cc1", "%", 2.9),
    ("CC(C)(C)c1ccc(CCCCCC[C@H](O)[C@@H]2N[C@@H](CO)[C@H](O)[C@H]2O)cc1", "%", 4.2),
    ("OC[C@@H]1N[C@@H]([C@@H](O)CCCCCCc2ccc(Cl)cc2)[C@H](O)[C@H]1O", "%", 0),
    ("Cl.OC[C@H]1N[C@H](CCCCCCCc2ccc(F)cc2)[C@@H](O)[C@@H]1O", "%", 13),
    ("Cl.OC[C@H]1N[C@H](CCCCCCCc2cccc(F)c2)[C@@H](O)[C@@H]1O", "%", 10),
    ("CC(C)(C)c1ccc(CCCCCCC[C@H]2N[C@H](CO)[C@@H](O)[C@@H]2O)cc1.Cl", "%", 17.8),
    ("Cl.OC[C@H]1N[C@H](CCCCCCCc2ccc(Cl)cc2)[C@@H](O)[C@@H]1O", "%", 11.2),
    ("OC[C@H]1N[C@H](CCCCCCCc2ccccc2)[C@@H](O)[C@@H]1O", "%", 43.9),
    ("CC(C)(C)c1ccc(CCCCCC[C@@H](O)[C@@H]2N[C@@H](CO)[C@H](O)[C@H]2O)cc1", "%", 4.6),
    ("Cl.OC[C@H]1N[C@H]([C@@H](O)CCCCCCc2ccc(Cl)cc2)[C@@H](O)[C@@H]1O", "%", 3.5),
    ("Cl.OC[C@@H]1N[C@@H]([C@@H](O)CCCCCCc2ccc(F)c(F)c2)[C@H](O)[C@H]1O", "%", 4.6),
    ("CC(C)(C)c1ccc(CCCCCC[C@@H](O)[C@H]2N[C@H](CO)[C@@H](O)[C@@H]2O)cc1.Cl", "%", 4.8),
    ("O=C1CCCC=C1CCCCCCC[C@H]1N[C@H](CO)[C@@H](O)[C@@H]1O", "%", 35.1),
]
